Below: a set of entries, each annotated with reported inhibition.
biological target: Rac GTPase-activating protein 1 (Homo sapiens) (UniProt Q9H0H5); experiment: blockers of MgcRacGAP-driven Rac1 GTP hydrolysis – biochemical, ADP Hunter fluorescence, primary and confirmatory, confirmation (AID 624330); conditions: MgcRacGAP-stimulated Rac1 GTP hydrolysis, at 30 µM, active compounds read high, GST-tagged Rac1 F28L mutant substrate;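 further: fluorescence reports GDP produced by GAP-driven GTP hydrolysis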
Sequence (Q9H0H5 whole entry, looked up): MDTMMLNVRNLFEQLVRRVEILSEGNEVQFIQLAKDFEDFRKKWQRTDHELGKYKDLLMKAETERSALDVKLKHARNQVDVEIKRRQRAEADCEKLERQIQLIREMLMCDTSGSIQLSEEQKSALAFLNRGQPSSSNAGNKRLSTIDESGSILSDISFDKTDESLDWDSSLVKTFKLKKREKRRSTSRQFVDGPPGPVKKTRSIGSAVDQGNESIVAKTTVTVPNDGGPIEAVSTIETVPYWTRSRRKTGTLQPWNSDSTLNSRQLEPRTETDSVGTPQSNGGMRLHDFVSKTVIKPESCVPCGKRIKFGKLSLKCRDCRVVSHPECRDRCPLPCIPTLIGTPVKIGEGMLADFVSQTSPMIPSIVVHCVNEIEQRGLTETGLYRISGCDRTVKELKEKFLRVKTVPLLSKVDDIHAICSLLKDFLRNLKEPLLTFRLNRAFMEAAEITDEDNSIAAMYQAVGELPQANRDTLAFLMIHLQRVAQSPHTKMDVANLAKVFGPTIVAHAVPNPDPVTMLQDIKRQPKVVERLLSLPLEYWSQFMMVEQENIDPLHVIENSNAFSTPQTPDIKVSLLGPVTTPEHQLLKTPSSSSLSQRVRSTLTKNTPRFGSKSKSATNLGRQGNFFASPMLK
In all, about 340,000 compounds went through this assay and about 2,100 (0.62%) were called active. A selection follows. Measured potencies and affinities stand elsewhere.
assay.readout: inhibition (%)

{"compound": "COc1ccc(CN2CCC(N3CC(C)OC(C)C3)CC2)c(OC)c1 (centres undefined)", "reported.measurement": 29.1}
{"compound": "COc1ccc(CN2CCN(c3ccc(F)cc3)CC2)c(OC)c1OC", "reported.measurement": 8.37}
{"compound": "CCN(Cc1ccncc1)Cc1c(O)ccc2ccccc12", "reported.measurement": 15.9}
{"compound": "COc1ccc(CN2CCC(n3nccc3NC(=O)C3CC3)CC2)c(OC)c1OC", "reported.measurement": 8.32}

###

Below: a set of entries, each annotated with reported inhibition.
target: Rac GTPase-activating protein 1 (Homo sapiens) (UniProt Q9H0H5); assay: blockers of MgcRacGAP-driven Rac1 GTP hydrolysis – biochemical, ADP Hunter fluorescence, primary and confirmatory, confirmation (AID 624330); conditions: MgcRacGAP-stimulated Rac1 GTP hydrolysis, at 30 µM, active compounds read high, GST-tagged Rac1 F28L mutant substrate;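 further: fluorescence reports GDP produced by GAP-driven GTP hydrolysis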
About 2,100 (0.62%) of roughly 340,000 compounds were called active. These entries were drawn from the full list. Results with a measured potency or affinity are listed apart.

{"compound": "CC(C)C(=O)Nc1ccc2c(c1)Cc1cc(NC(=O)C(C)C)ccc1-2", "unit.info": "%", "inhibition": 12.2}
{"compound": "O=C(O)c1ccc(N(c2ccccc2)c2ccccc2)cc1", "unit.info": "%", "inhibition": 6.47}
{"compound": "COc1ccc(/C=N/NC(=O)c2ccoc2C)cc1OC", "unit.info": "%", "inhibition": 6.81}
{"compound": "O=C(OCN1C(=O)C(=O)c2ccccc21)c1ccc(Cl)cc1", "unit.info": "%", "inhibition": 7.35}
{"compound": "FC(F)(F)c1cccc(N2CCN(C3CC4CCC3C4)CC2)c1 (configuration not stated)", "unit.info": "%", "inhibition": -3.5}
{"compound": "C[C@H](NC(=O)c1ccc(Cl)cc1)C(=O)NNC(=O)c1cccs1", "unit.info": "%", "inhibition": 4.07}
{"compound": "CCN(CC(=O)Nc1cc(Cl)ccc1C)C(=O)COc1ccccc1F", "unit.info": "%", "inhibition": -0.45}
{"compound": "CN(C)CCOc1ccc2ccccc2c1", "unit.info": "%", "inhibition": 25.2}
{"compound": "O=C(CNC(=O)c1ccccc1Br)N/N=C/c1cccs1", "unit.info": "%", "inhibition": 0.32}
{"compound": "Cc1c(N=Cc2cc3c(cc2Cl)OCO3)c(=O)n(-c2ccccc2)n1C", "unit.info": "%", "inhibition": 4.04}
{"compound": "CCN(CC)S(=O)(=O)c1ccc(C(=O)Oc2cc(C)[nH]c(=O)c2[N+](=O)[O-])cc1", "unit.info": "%", "inhibition": 0.7}
{"compound": "COc1cc(/C=N/NC(=O)c2cc(C)oc2C)cc(OC)c1OC", "unit.info": "%", "inhibition": -1.5}
{"compound": "Fc1ccc(-c2csc(-c3cccnc3)n2)cc1F", "unit.info": "%", "inhibition": 7.05}
{"compound": "CCOc1ccc(/C=C(\\C#N)C(=O)Nc2ccccn2)cc1", "unit.info": "%", "inhibition": -0.14}
{"compound": "Cc1c(NC(=S)N/N=C/c2ccc(Br)cc2)c(=O)n(-c2ccccc2)n1C", "unit.info": "%", "inhibition": 9.41}
{"compound": "O=[N+]([O-])c1cccc(-c2ccc(C(=S)N3CCN(c4ccc(F)cc4)CC3)o2)c1", "unit.info": "%", "inhibition": 5.79}
{"compound": "CC(Oc1cccc(Cl)c1)C(=O)N1CCN(c2ncccn2)CC1 (configuration not stated)", "unit.info": "%", "inhibition": 3.63}

Source: PubChem BioAssay AID624330
